Read-out: ATP-citrate lyase (ACLY), ACLY (gene 47)
ASSAY INFO: LTEA_HepaRG_ACLY: Life Technologies and Expression Analysis (LTEA) Assay for ATP-citrate lyase (ACLY) using HepaRG (AID 2283466)
STUDY CONDITIONS: mRNA level, 48 h; actives raise or lower the signal
Calls of active or inactive are those of the source. The calls were made as follows: active = hit-call score of the fitted dose curve at least 0.9, where 1 is the maximum; inactive = score below 0.9.
Please state which outcome applies, choosing from active, inactive

IN: Please state the recorded outcome for this compound: On1ccccc1=S
OUT: inactive

IN: Please state the recorded outcome for this compound: CCOC(=O)CC(CC(=O)OCC)(OC(C)=O)C(=O)OCC
OUT: inactive

IN: Please state the recorded outcome for this compound: CCN(C(=O)c1cc(C)cc(OC[C@H](C)Nc2ccncc2)c1)C(C)C
OUT: active

IN: Please state the recorded outcome for this compound: O=C(CCCCCCCCc1cccnc1)N1CCC(C=C(c2ccccc2)c2ccccc2)CC1
OUT: inactive

IN: Please state the recorded outcome for this compound: Clc1nc(Cl)c(Cl)c(Cl)c1Cl
OUT: inactive

IN: Please state the recorded outcome for this compound: CCOCCO
OUT: inactive

IN: Please state the recorded outcome for this compound: Nc1nc2ncc(CNc3ccc(C(=O)N[C@@H](CCC(=O)O)C(=O)O)cc3)nc2c(=O)[nH]1
OUT: inactive

IN: Please state the recorded outcome for this compound: CCCCCCCCO
OUT: inactive
